Protein target, amino acids: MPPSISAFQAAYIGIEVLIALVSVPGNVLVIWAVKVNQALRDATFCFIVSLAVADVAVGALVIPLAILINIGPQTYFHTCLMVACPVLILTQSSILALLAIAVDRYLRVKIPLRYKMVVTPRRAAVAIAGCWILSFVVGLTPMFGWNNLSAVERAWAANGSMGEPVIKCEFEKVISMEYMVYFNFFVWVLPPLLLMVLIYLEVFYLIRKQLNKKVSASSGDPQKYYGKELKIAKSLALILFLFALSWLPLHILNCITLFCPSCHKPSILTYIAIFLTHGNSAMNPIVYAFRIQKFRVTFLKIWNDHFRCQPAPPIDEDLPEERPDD
Please respond with reported Ki for every item in the list.
The reply should be a number in nM, with the unit left off.

input: I have this compound here, Cn1cc2c(nc(NC(=O)NC3CCN(C(=O)NC4CCCC4)CC3)n3nc(-c4ccco4)nc23)n1 , and I need its recorded Ki.
output: 744

input: I have this compound here, Cn1cc2c(nc(NC(=O)NC3CCN(Cc4ccc(C#N)cc4)CC3)n3nc(-c4ccco4)nc23)n1 , and I need its recorded Ki.
output: 166

input: I have this compound here, Cn1cc2c(nc(NC(=O)NC3CCN(Cc4ccc([N+](=O)[O-])cc4)CC3)n3nc(-c4ccco4)nc23)n1 , and I need its recorded Ki.
output: 371

input: I have this compound here, COc1ccc(CNC(=O)N2CCC(NC(=O)Nc3nc4nn(C)cc4c4nc(-c5ccco5)nn34)CC2)cc1 , and I need its recorded Ki.
output: 635

input: I have this compound here, COc1ccc(CN2CCC(NC(=O)Nc3nc4nn(C)cc4c4nc(-c5ccco5)nn34)CC2)cc1 , and I need its recorded Ki.
output: 1160

input: I have this compound here, Cn1cc2c(nc(NC(=O)NC3CCN(Cc4ccc(Cl)cc4)CC3)n3nc(-c4ccco4)nc23)n1 , and I need its recorded Ki.
output: 724

input: I have this compound here, CC(C)NC(=O)N1CCC(NC(=O)Nc2nc3nn(C)cc3c3nc(-c4ccco4)nn23)CC1 , and I need its recorded Ki.
output: 1320

input: I have this compound here, Cn1cc2c(nc(NC(=O)NC3CCN(C(=O)NC4CCCCC4)CC3)n3nc(-c4ccco4)nc23)n1 , and I need its recorded Ki.
output: 761

input: I have this compound here, Cn1cc2c(nc(NC(=O)NC3CCN(Cc4ccc(F)cc4)CC3)n3nc(-c4ccco4)nc23)n1 , and I need its recorded Ki.
output: 1050

input: I have this compound here, Cn1cc2c(nc(NC(=O)NC3CCN(Cc4ccncc4)CC3)n3nc(-c4ccco4)nc23)n1 , and I need its recorded Ki.
output: 1190

input: I have this compound here, Cn1cc2c(nc(NC(=O)NC3CCN(C(=O)NCCCc4ccccc4)CC3)n3nc(-c4ccco4)nc23)n1 , and I need its recorded Ki.
output: 112

input: I have this compound here, Cn1cc2c(nc(NC(=O)NC3CCN(C(=O)Nc4ccncc4)CC3)n3nc(-c4ccco4)nc23)n1 , and I need its recorded Ki.
output: 1300

----------
study.system: Adenosine receptor A2a (Homo sapiens)
Sequence (P29274 whole entry): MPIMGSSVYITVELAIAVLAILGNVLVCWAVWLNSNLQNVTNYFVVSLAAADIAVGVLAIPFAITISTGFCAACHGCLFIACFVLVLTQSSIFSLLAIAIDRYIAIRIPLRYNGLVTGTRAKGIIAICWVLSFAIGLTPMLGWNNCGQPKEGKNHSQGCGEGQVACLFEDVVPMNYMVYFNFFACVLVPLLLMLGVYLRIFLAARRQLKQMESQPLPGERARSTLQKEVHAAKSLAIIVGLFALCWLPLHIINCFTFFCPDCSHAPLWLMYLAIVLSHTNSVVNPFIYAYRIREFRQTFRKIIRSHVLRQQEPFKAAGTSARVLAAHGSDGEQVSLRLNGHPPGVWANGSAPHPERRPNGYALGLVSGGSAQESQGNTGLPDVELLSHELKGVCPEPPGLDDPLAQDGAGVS
Please respond with reported Ki for every item in the list.
The reply should be a number in nM, with the unit left off.

input: I have this molecule here, C#CCN1CCC(NC(=O)Nc2nc3nn(C)cc3c3nc(-c4ccco4)nn23)CC1 , and I need its recorded Ki.
output: 789

input: I have this molecule here, Cn1cc2c(nc(NC(=O)NC3CCN(C(=O)NCCc4ccccc4)CC3)n3nc(-c4ccco4)nc23)n1 , and I need its recorded Ki.
output: 1840

input: I have this molecule here, Cn1cc2c(nc(NC(=O)NC3CCN(Cc4ccccc4)CC3)n3nc(-c4ccco4)nc23)n1 , and I need its recorded Ki.
output: 526

input: I have this molecule here, CCOC(=O)CN1CCC(NC(=O)Nc2nc3nn(C)cc3c3nc(-c4ccco4)nn23)CC1 , and I need its recorded Ki.
output: 1080

input: I have this molecule here, Cc1ccc(CNC(=O)N2CCC(NC(=O)Nc3nc4nn(C)cc4c4nc(-c5ccco5)nn34)CC2)cc1 , and I need its recorded Ki.
output: 2810

input: I have this molecule here, Cn1cc2c(nc(NC(=O)NC3CCN(C(=O)Nc4ccncc4)CC3)n3nc(-c4ccco4)nc23)n1 , and I need its recorded Ki.
output: 1860

----------
pKi: −log10 of the molar value.
measurement.label: pKi

input: API: value(readout= pKi, system= Adenosine receptor A2a (Homo sapiens), query= CCCN1CCC(NC(=O)Nc2nc3nn(C)cc3c3nc(-c4ccco4)nn23)CC1 )
output: 5.92

input: API: value(readout= pKi, system= Adenosine receptor A2a (Homo sapiens), query= Cn1cc2c(nc(NC(=O)NC3CCNCC3)n3nc(-c4ccco4)nc23)n1 )
output: < 5.30

input: API: value(readout= pKi, system= Adenosine receptor A2a (Homo sapiens), query= Cn1cc2c(nc(NC(=O)NC3CCN(C(=O)NCCCc4ccccc4)CC3)n3nc(-c4ccco4)nc23)n1 )
output: 5.78

input: API: value(readout= pKi, system= Adenosine receptor A2a (Homo sapiens), query= Cn1cc2c(nc(NC(=O)NC3CCN(C(=O)NCc4ccc(Cl)cc4)CC3)n3nc(-c4ccco4)nc23)n1 )
output: 5.94

input: API: value(readout= pKi, system= Adenosine receptor A2a (Homo sapiens), query= Cn1cc2c(nc(NC(=O)NC3CCN(Cc4ccc(Cl)cc4)CC3)n3nc(-c4ccco4)nc23)n1 )
output: < 5.30

input: API: value(readout= pKi, system= Adenosine receptor A2a (Homo sapiens), query= COc1ccc(CN2CCC(NC(=O)Nc3nc4nn(C)cc4c4nc(-c5ccco5)nn34)CC2)cc1 )
output: < 5.30

input: API: value(readout= pKi, system= Adenosine receptor A2a (Homo sapiens), query= Cn1cc2c(nc(NC(=O)NC3CCN(Cc4ccc([N+](=O)[O-])cc4)CC3)n3nc(-c4ccco4)nc23)n1 )
output: < 5.30

input: API: value(readout= pKi, system= Adenosine receptor A2a (Homo sapiens), query= CN1CCC(NC(=O)Nc2nc3nn(C)cc3c3nc(-c4ccco4)nn23)CC1 )
output: < 5.30

input: API: value(readout= pKi, system= Adenosine receptor A2a (Homo sapiens), query= Cn1cc2c(nc(NC(=O)NC3CCN(C(=O)NCc4ccccc4)CC3)n3nc(-c4ccco4)nc23)n1 )
output: < 5.30

----------
procedure.summary: Solubility of the compound in water at pH 7.4
Type: physicochemical
measurement.label: solubility

input: I have this molecule here, Cl.Cn1cc2c(nc(NC(=O)NC3CCN(Cc4ccc(F)cc4)CC3)n3nc(-c4ccco4)nc23)n1 , and I need its recorded solubility.
output: 8000 µg/mL

input: I have this molecule here, CN1CCC(NC(=O)Nc2nc3nn(C)cc3c3nc(-c4ccco4)nn23)CC1.Cl , and I need its recorded solubility.
output: 15000 µg/mL

input: I have this molecule here, C#CCN1CCC(NC(=O)Nc2nc3nn(C)cc3c3nc(-c4ccco4)nn23)CC1.Cl , and I need its recorded solubility.
output: 8000 µg/mL

input: I have this molecule here, Cl.Cn1cc2c(nc(NC(=O)NC3CCN(CC4CCCCC4)CC3)n3nc(-c4ccco4)nc23)n1 , and I need its recorded solubility.
output: 8000 µg/mL

input: I have this molecule here, Cl.Cn1cc2c(nc(NC(=O)Nc3ccncc3)n3nc(-c4ccco4)nc23)n1 , and I need its recorded solubility.
output: < 100 µg/mL

----------
Please respond with reported Ratio Ki for every item in the list.
study.system: Adenosine receptors; A1 & A3 (Homo sapiens) (UniProt P30542+P0DMS8)
procedure.summary: Selectivity ratio of Ki for human adenosine A1 receptor to Ki for human adenosine A3 receptor
Field format: numeric only.

input: I have this molecule here, Cl.Cn1cc2c(nc(NC(=O)NC3CCN(CC4CCCCC4)CC3)n3nc(-c4ccco4)nc23)n1 , and I need its recorded Ratio Ki.
output: 351

input: I have this molecule here, Cn1cc2c(nc(NC(=O)NC3CCN(C(=O)NCCCc4ccccc4)CC3)n3nc(-c4ccco4)nc23)n1 , and I need its recorded Ratio Ki.
output: 7.7

input: I have this molecule here, Cn1cc2c(nc(NC(=O)NC3CCN(Cc4ccc(C#N)cc4)CC3)n3nc(-c4ccco4)nc23)n1 , and I need its recorded Ratio Ki.
output: 14

input: I have this molecule here, COc1ccc(CN2CCC(NC(=O)Nc3nc4nn(C)cc4c4nc(-c5ccco5)nn34)CC2)cc1 , and I need its recorded Ratio Ki.
output: 87

input: I have this molecule here, Cc1ccc(CN2CCC(NC(=O)Nc3nc4nn(C)cc4c4nc(-c5ccco5)nn34)CC2)cc1 , and I need its recorded Ratio Ki.
output: 107

----------
study.system: Adenosine receptor A2b (Homo sapiens)
Sequence (P29275 whole entry): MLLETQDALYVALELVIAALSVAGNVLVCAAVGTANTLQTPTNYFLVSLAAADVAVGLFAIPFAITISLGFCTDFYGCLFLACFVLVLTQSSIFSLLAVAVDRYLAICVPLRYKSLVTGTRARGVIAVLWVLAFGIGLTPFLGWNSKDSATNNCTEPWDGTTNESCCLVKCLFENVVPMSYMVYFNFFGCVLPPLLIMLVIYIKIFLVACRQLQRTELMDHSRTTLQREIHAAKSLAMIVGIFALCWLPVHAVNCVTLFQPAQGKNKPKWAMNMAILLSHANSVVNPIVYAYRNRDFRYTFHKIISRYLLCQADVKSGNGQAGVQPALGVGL
procedure.summary: Antagonist activity at human adenosine A2B receptor expressed in CHO cells assessed as inhibition of NECA-induced cAMP production
pIC50: −log10 of the molar value.
measurement.label: pIC50

input: I have this compound here, Cn1cc2c(nc(NC(=O)NC3CCN(C(=O)NCc4ccccc4)CC3)n3nc(-c4ccco4)nc23)n1 , and I need its recorded pIC50.
output: 5.96

input: I have this compound here, Cn1cc2c(nc(NC(=O)NC3CCN(Cc4ccncc4)CC3)n3nc(-c4ccco4)nc23)n1 , and I need its recorded pIC50.
output: < 5.30

input: I have this compound here, CCOC(=O)CN1CCC(NC(=O)Nc2nc3nn(C)cc3c3nc(-c4ccco4)nn23)CC1 , and I need its recorded pIC50.
output: < 5.30

input: I have this compound here, Cn1cc2c(nc(NC(=O)NC3CCN(Cc4ccccc4)CC3)n3nc(-c4ccco4)nc23)n1 , and I need its recorded pIC50.
output: 5.69

input: I have this compound here, Cn1cc2c(nc(NC(=O)NC3CCN(C(=O)NC4CCCCC4)CC3)n3nc(-c4ccco4)nc23)n1 , and I need its recorded pIC50.
output: < 5.30

input: I have this compound here, CCNC(=O)N1CCC(NC(=O)Nc2nc3nn(C)cc3c3nc(-c4ccco4)nn23)CC1 , and I need its recorded pIC50.
output: < 5.30

input: I have this compound here, Cn1cc2c(nc(NC(=O)NC3CCN(Cc4ccc([N+](=O)[O-])cc4)CC3)n3nc(-c4ccco4)nc23)n1 , and I need its recorded pIC50.
output: < 5.30

input: I have this compound here, COc1ccc(CNC(=O)N2CCC(NC(=O)Nc3nc4nn(C)cc4c4nc(-c5ccco5)nn34)CC2)cc1 , and I need its recorded pIC50.
output: 5.49
